These measurements were taken from patent US12312347B2.

pIC50: −log10 of the molar value. Structures can show the parent of a compound that is named as a salt.
Let's go through some pIC50 measurements on human FGFR1 (Homo sapiens) together.
endpointLabel: pIC50

{"columns": ["compound", "endpointLabel", "numericReadout"],
 "data": [
  ["COc1cc(OC)c(F)c(Cc2c[nH]c3ncc(-c4cnn(CC(O)CO)c4)cc23)c1F (stereo not drawn) [Hydrochloride of embodiment 73]", "pIC50", 9.22]
]}

(A) CCN1CCc2ncc(-c3cnc4[nH]cc(Cc5c(F)c(OC)cc(OC)c5F)c4c3)cc2C1 [Trifluoroacetate salt of embodiment 53]
(B) COc1cc(OC)c(F)c(CC2=CN=C3N=CC(c4cnn(CCN5CCOCC5)c4)=CC23)c1F (stereo not drawn) [Trifluoroacetate salt of embodiment 21]
### Prompt In terms of reported pIC50, does A or B have the smaller number? Write down the label of the entry you select.
### Response B
(B: 8.70, A: 9.49)

* * *

protocolSummary: Pharmacokinetic evaluation in mice (IV and PO)
Assay type: in vivo, male CD-1 mice
measurementSetup: male, CD-1 nude, mouse, plasma, IV 2 mg/kg
Experimental: Experimental Procedure: 0.4 mg/mL clear solution of the test compounds in a specific menstruum was injected intravenously into male CD-1 nude mice (overnight fasting, aged 7-9 weeks) via caudal vein at a dose of 2 mg/kg. About 30 μL of blood was collected from jugular or caudal vein at 0.0833, 0.25, 0.5, 1.0, 2.0, 4.0, 8.0 and 24 h after intravenous administration. […]
endpointLabel: AUC(0-t) (µM·h)

{"columns": ["compoundSmiles", "numericReadout"],
 "data": [
  ["COc1cc(OC)c(F)c(Cc2c[nH]c3ncc(-c4cnn(CCO)c4)cc23)c1F", 3.79],
  ["COc1nc(OC)c(F)c(Cc2c[nH]c3ncc(-c4cnn(CCO)c4)cc23)c1F", 3.15]
]}

* * *

pIC50: −log10 of the molar value. Structures can show the parent of a compound that is named as a salt.
Let's go through some pIC50 measurements on human FGFR1 (Homo sapiens) together.
endpointLabel: pIC50

{"columns": ["compound", "assayTarget", "pIC50"],
 "data": [
  ["COc1cc(OC)c(F)c(Cc2c[nH]c3ncc(-c4cnn(C5CCN(C(C)C)CC5)c4)cc23)c1F [Trifluoroacetate salt of embodiment 14]", "human FGFR1 (Homo sapiens)", 8.87]
]}

(A) CCN1CC(n2cc(-c3cnc4[nH]cc(Cc5c(F)c(OC)cc(OC)c5F)c4c3)cn2)C1 [Trifluoroacetate salt of embodiment 25]
(B) COc1cc(OC)c(F)c(Cc2c[nH]c3ncc(-c4cncc(C5=CCNCC5)n4)cc23)c1F [Hydrochloride of embodiment 63]
(C) COc1nc(OC)c(F)c(Cc2c[nH]c3ncc(-c4cnn(CCO)c4)cc23)c1F [Embodiment 48]
### Prompt # rank_down: sort by pIC50, max first I'd appreciate it if you listed the labels in the requested order.
### Response C, A, B

* * *

assayTarget: human FGFR1 (Homo sapiens, UniProt P11362)
Sequence (P11362 22-822): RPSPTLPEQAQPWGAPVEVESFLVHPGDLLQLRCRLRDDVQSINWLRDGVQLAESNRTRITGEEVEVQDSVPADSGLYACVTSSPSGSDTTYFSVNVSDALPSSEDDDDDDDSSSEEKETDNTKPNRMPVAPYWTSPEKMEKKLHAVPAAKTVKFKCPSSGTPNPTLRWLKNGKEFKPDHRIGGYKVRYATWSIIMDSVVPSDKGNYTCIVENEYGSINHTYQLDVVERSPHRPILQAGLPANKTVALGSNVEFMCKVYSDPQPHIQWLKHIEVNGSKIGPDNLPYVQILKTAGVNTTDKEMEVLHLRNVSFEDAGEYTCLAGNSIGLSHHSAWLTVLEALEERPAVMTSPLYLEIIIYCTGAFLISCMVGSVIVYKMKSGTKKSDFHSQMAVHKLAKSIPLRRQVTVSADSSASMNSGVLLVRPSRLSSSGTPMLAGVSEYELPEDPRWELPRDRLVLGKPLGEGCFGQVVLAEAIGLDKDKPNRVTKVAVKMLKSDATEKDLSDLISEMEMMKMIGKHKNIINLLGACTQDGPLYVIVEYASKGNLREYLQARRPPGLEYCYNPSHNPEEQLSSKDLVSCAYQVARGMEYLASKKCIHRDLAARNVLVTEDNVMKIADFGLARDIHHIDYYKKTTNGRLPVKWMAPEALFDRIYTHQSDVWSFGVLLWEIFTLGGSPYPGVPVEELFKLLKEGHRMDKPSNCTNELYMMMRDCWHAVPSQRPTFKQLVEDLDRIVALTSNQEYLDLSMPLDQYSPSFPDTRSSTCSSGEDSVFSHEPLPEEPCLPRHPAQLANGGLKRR
pIC50: −log10 of the molar value. Counter-ions that a name gives are not always drawn.
endpointLabel: pIC50

{"columns": ["compound", "pIC50"],
 "data": [
  ["CCN1Cc2cc(-c3cnc4[nH]cc(Cc5c(F)c(OC)cc(OC)c5F)c4c3)cnc2C1 [Trifluoroacetate salt of embodiment 51]", 9.57],
  ["COc1cc(OC)c(F)c(Cc2c[nH]c3ncc(-c4ccc5c(c4)NC(=O)C54CCNCC4)cc23)c1F [Trifluoroacetate salt of embodiment 54]", 8.57]
]}

(1) COc1cc(OC)c(F)c(Cc2c[nH]c3ncc(-c4cnn(C5CCC(O)CC5)c4)cc23)c1F (stereo not drawn) [Trifluoroacetate salt of embodiment 31]
(2) COc1cc(OC)c(F)c(Cc2c[nH]c3ncc(-c4cnn(S(C)(=O)=O)c4)cc23)c1F [Trifluoroacetate salt of embodiment 30]
(3) COc1cc(OC)c(F)c(Cc2c[nH]c3ncc(-c4c(C)nn(CCO)c4C)cc23)c1F [Hydrochloride of embodiment 34]
(4) CCN1CCC(n2ncc(-c3cnc4[nH]cc(Cc5c(F)c(OC)cc(OC)c5F)c4c3)c2Cl)CC1 [Hydrochloride of embodiment 40]
### Prompt Write the entries in order, lowest recorded pIC50 first. I'd appreciate it if you listed the labels in the requested order.
### Response 3, 2, 1, 4
